The measured values listed here are drawn from paper PMC5456363.

assayDetails: Peptide stability in commercial serum (CS)
Type: in vitro ADME, mouse
assaySetup: commercial pooled serum; commercial mouse serum, 37°C, 1 h, 31.5 μmol/L; read-out: intact peptide remaining relative to time zero

substance: H-VDKPPYLPRPRPPRRIYNR-NH2 [Onc18, VDKPPYLPRPRPPRRIYNR-NH2]
unitsOfMeasure: %
remaining at 1 h, 31.5 μmol/L: 12
